system: Salmonella enterica serovar Typhimurium SL1344; settings: LPM pH 5.8
Structures can show the parent of a compound that is named as a salt.
measured-quantity: MIC

# molecule, measured-quantity, recorded-value
data = [
    ("O=C(O)CN(CCN(CC(=O)O)CC(=O)O)CC(=O)O.[Na+].[Na+].[Na+] [TRISODIUM ETHYLENEDIAMINE TETRACETATE]", "MIC", "1.56 µM"),
    ("O.O.O=C([O-])CN(CCN(CC(=O)[O-])CC(=O)O)CC(=O)O.[Na+].[Na+] [EDETATE DISODIUM]", "MIC", "> 50 µM"),
    ("O=[N+]([O-])c1ccc(O)c2ncccc12", "MIC", "≤ 0.78 µM"),
    ("CC(=O)[C@H]1CC[C@H]2[C@@H]3C[C@H](C)C4=CC(=O)CC[C@]4(C)[C@H]3[C@@H](O)C[C@]12C", "MIC", "> 50 µM"),
    ("CC[C@H]1OC(=O)[C@H](C)[C@@H](O[C@H]2C[C@@](C)(OC)[C@@H](O)[C@H](C)O2)[C@H](C)[C@@H](O[C@@H]2O[C@H](C)C[C@H](N(C)C)[C@H]2O)[C@](C)(O)C[C@@H](C)C(=O)[C@H](C)[C@@H](O)[C@]1(C)O", "MIC", "> 50 µM"),
    ("CS(=O)(=O)c1ccc([C@@H](O)[C@@H](CF)NC(=O)C(Cl)Cl)cc1", "MIC", "≤ 0.78 µM"),
]

CO/N=C(\C(=O)N[C@@H]1C(=O)N2C(C(=O)O)=C(COC(C)=O)CS[C@H]12)c1csc(N)n1 [CEFOTAXIME SODIUM] tested on Salmonella enterica serovar Typhimurium SL1344 gave MIC: ≤ 0.78 µM

`O=C(CCCN1CCC2(CC1)C(=O)NCN2c1ccccc1)c1ccc(F)cc1` tested on Salmonella enterica serovar Typhimurium SL1344 gave MIC: > 50 µM

`CCCCC(=O)N(Cc1ccc(-c2ccccc2-c2nnn[nH]2)cc1)[C@H](C(=O)O)C(C)C` tested on Salmonella enterica serovar Typhimurium SL1344 gave MIC: > 50 µM

`CCn1cc(C(=O)O)c(=O)c2cc(F)c(N3CCNCC3)cc21` tested on Salmonella enterica serovar Typhimurium SL1344 gave MIC: 1.56 µM

C[C@H]1COc2c(C3(N)CC3)c(F)cc3c(=O)c(C(=O)O)cn1c23 [PAZUFLOXACIN MESYLATE] tested on Salmonella enterica serovar Typhimurium SL1344 gave MIC: ≤ 0.78 µM
